Provenance of the data: patent US20200385427

target: T1, R9-PCP
T1 chain: RRRRRRRRRXDEXLI
Value type: kcat/KM (dephosphorylation of pCAP peptide) (M⁻¹ s⁻¹)
One number for each entry, in M⁻¹ s⁻¹.

# kcat/KM (dephosphorylation of pCAP peptide) of VHR (protein) MSGSFELSVQDLNDLLSDGSGCYSLPSQPCNEVTPRIYVGNASVAQDIPKLQKLGITHVLNAAEGRSFMHVNTNANFYKDSGITYLGIKANDTQEFNLSAYFERAADFIDQALAQKNGRVLVHCREGYSRSPTLVIAYLMMRQKMDVKSALSIVRQNREIGPNDGFLAQLCQLNDRLAKEGKLKP = 6240
